- methodSummary: Metabolic stability in rat liver microsomes assessed as compound metabolism after 20 mins incubation in presence of 1 mM NADPH
- Format: ADME
- testSettings: liver microsomes, read-out: Drug metabolism
experimentalEndpoint: metabolised at 20 min (%)

Sample answers from the record:
[
  {
    "chemSmiles": "CCCC(=O)c1cnn(-c2ccc(NC(=O)c3cn(CC(=O)N4CCN(CCO)CC4)c4ccc(C)cc34)cc2)c1C",
    "measuredNumber": 17
  },
  {
    "chemSmiles": "CCCC(=O)c1cnn(-c2ccc(NC(=O)c3cn(CC(=O)N4CCN(CCO)CC4)c4ccc(Cl)cc34)cc2)c1C",
    "measuredNumber": 6
  },
  {
    "chemSmiles": "CCCC(=O)c1cnn(C2CCN(NC(=O)c3cn(CC(=O)N4CCN(C)CC4)c4ccc(Cl)cc34)CC2)c1C",
    "measuredNumber": 13
  }
]

1: Cc1c(C(=O)CCC(F)(F)F)cnn1-c1ccc(NC(=O)c2cn(CC(=O)N3CCN(C)CC3)c3ccc(Cl)cc23)cc1
2: CCCC(=O)c1cnn(-c2ccc(NC(=O)c3cn(CC(=O)N4CCN(C)CC4)c4cc(C)c(C)cc34)cc2)c1C.Cl
3: CCCC(=O)c1cnn(-c2ccc(NC(=O)c3cn(CC(=O)N4CCN(CC(F)F)CC4)c4ccc(C)cc34)cc2)c1C
4: CCCC(=O)c1cnn(-c2ccc(NC(=O)c3cn(CC(=O)O)c4cc(C)c(C)cc34)cc2)c1C
Task: Falling order of metabolised at 20 min, please. State the ranking by listing the labels in the requested order.
Output: 2, 3, 1, 4
(2: 52%, 3: 27%, 1: 3%, 4: 2%)
